Tested on: Escherichia coli TOP10
Experiment: shrunken log2 fold change of peptide-encoding DNA abundance (4.5 h post-induction vs induction); higher = less antimicrobial activity (less host growth inhibition)
Conditions: time post-induction: 4.5 h; library: site-saturation at positions 5, 18, 19, 20
Lab note: anything with shrunken log2 fold change at or over -0.1 counts as t; the rest go in f.

MACROMOLECULE SEQUENCE: RRIRPRPPRLPRPRPRPMWVPRP
STUDY SYSTEM: Escherichia coli TOP10
CATEGORY: f
//
MACROMOLECULE SEQUENCE: RRIRLRPPRLPRPRPRPKTIPRP
STUDY SYSTEM: Escherichia coli TOP10
CATEGORY: f
//
MACROMOLECULE SEQUENCE: RRIRVRPPRLPRPRPRPMFAPRP
STUDY SYSTEM: Escherichia coli TOP10
CATEGORY: t
//
MACROMOLECULE SEQUENCE: RRIRFRPPRLPRPRPRPMLGPRP
STUDY SYSTEM: Escherichia coli TOP10
CATEGORY: t
//
MACROMOLECULE SEQUENCE: RRIRLRPPRLPRPRPRPFKNPRP
STUDY SYSTEM: Escherichia coli TOP10
CATEGORY: f
//
MACROMOLECULE SEQUENCE: RRIRTRPPRLPRPRPRPCAHPRP
STUDY SYSTEM: Escherichia coli TOP10
CATEGORY: f
//
MACROMOLECULE SEQUENCE: RRIRLRPPRLPRPRPRPCSGPRP
STUDY SYSTEM: Escherichia coli TOP10;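 further: peptides expressed intracellularly from a pBAD plasmid library in pooled LB shake-flask culture, induced with 0.3% L-arabinose, DNA abundance read by NGS, three biological replicates, DESeq2 with apeglm shrinkage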
CATEGORY: t

Lookup: Decide: is the reported value of shrunken log2 fold change for RRIRMRPPRLPRPRPRPVHRPRP equal to or greater than -0.1?
Found: t
